Molecular target: Wee1-like protein kinase (Homo sapiens)
Sequence (P30291 whole entry): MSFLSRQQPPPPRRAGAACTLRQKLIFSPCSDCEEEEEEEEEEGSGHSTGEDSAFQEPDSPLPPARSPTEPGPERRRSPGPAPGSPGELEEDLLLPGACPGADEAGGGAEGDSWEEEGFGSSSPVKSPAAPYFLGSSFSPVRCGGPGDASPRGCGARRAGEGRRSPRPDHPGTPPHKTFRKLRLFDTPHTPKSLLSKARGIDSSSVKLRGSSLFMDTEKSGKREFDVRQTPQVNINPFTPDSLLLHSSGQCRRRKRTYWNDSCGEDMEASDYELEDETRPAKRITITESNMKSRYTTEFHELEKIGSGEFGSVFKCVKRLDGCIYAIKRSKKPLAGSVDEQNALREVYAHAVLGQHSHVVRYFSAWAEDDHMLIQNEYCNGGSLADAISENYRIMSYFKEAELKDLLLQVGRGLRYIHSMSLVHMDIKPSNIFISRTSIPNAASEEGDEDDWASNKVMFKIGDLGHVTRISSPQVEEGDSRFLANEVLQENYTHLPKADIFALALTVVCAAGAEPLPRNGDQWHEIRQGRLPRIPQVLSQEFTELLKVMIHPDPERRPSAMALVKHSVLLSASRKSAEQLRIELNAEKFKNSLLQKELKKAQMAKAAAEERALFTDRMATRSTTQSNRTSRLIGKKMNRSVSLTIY
Class boundaries, taken from values of IC50, are as follows: low = under 30 nM, mid = from 30 nM up to 40 nM, high = 40 nM and over

Sample answers from the record:
> print(dat)
                                   molecule  classification
1  CN(C)CCCOc1cc2[nH]c3cc(-c4ccccc4Cl)c4c(c3c2cc1O)C(=O)NC4=O             low
2  CN(C)CCCCc1cc2[nH]c3cc(-c4ccccc4Cl)c4c(c3c2cc1O)C(=O)NC4=O            high

*Q* Class for `O=C1NC(=O)c2c1c(-c1ccccc1Cl)cc1c2c2cc(O)c(OCCCN3CCOCC3)cc2n1CCO` ?
*A* low

*Q* Sort into band: `Cn1c2cc(OCCCN3CCOCC3)c(O)cc2c2c3c(c(-c4ccccc4Cl)cc21)C(=O)NC3=O`
*A* high

*Q* Sort into band: `Cn1c2cc(CCCCN3CCCC3)c(O)cc2c2c3c(c(-c4ccccc4Cl)cc21)C(=O)NC3=O`
*A* mid

*Q* Please let me know in which category the item `CN(C)CCCCc1cc2c(cc1O)c1c3c(c(-c4ccccc4Cl)cc1n2C)C(=O)NC3=O` belongs.
*A* mid

*Q* Pick a category. Item: `O=C1NC(=O)c2c1c(-c1ccccc1Cl)cc1[nH]c3cc(CCCCN4CCOCC4)c(O)cc3c21`
*A* mid

====

Assay: physchem
Description: Dissociation constant, pKa of the compound
Recorded pKa by entry

Worked cases, answers included:
> print(dat)
                                   molecule  parameter.measured  assay.result
1  O=C1NC(=O)c2c1c(-c1ccccc1Cl)cc1[nH]c3cc(OCCCN4CCOCC4)c(O)cc3c21                 pKa           7.8
2  O=C1NC(=O)c2c1c(-c1ccccc1Cl)cc1c2c2cc(O)c(CCCCN3CCCC3)cc2n1CCO                 pKa          10.5
3  Cn1c2cc(C(=O)NCCN3CCCC3)c(O)cc2c2c3c(c(-c4ccccc4Cl)cc21)C(=O)NC3=O                 pKa          10.5
4  O=C1NC(=O)c2c1c(-c1ccccc1Cl)cc1c2c2cc(O)c(OCCCN3CCCC3)cc2n1CCO                 pKa          10.5

Next compound, please.
*Q* Look up pKa: `Cn1c2cc(CCCCN3CCOCC3)c(O)cc2c2c3c(c(-c4ccccc4Cl)cc21)C(=O)NC3=O`
*A* 7.8

====

Test system: HT-29
Experiment: cells
Assay type: functional, cell-based
Conditions: Homo sapiens, HT-29, 72 h
Description: Cytotoxicity against human HT29 cells after 72 hrs
Reported pIC50 by item:
By convention, pIC50 is the negative base-10 log of a molar concentration.

> print(dat)
                                   molecule  assay.result
1  Cn1c2cc(OCCCN3CCCC3)c(O)cc2c2c3c(c(-c4ccccc4Cl)cc21)C(=O)NC3=O          6.51

*Q* Item under review: `CN(C)CCCOc1cc2c(cc1O)c1c3c(c(-c4ccccc4Cl)cc1n2C)C(=O)NC3=O` . Reported pIC50?
*A* 6.64

====

Experiment: physchem
parameter_measured: pKa
Lab note: jot down the number only; don't add units.

*Q* Please look up its pKa: `O=C1NC(=O)c2c1c(-c1ccccc1Cl)cc1c2c2cc(O)c(CCCCN3CCOCC3)cc2n1CCO`
*A* 7.8

*Q* Suppose we examine the molecule `O=C1NC(=O)c2c1c(-c1ccccc1Cl)cc1[nH]c3cc(OCCCN4CCCC4)c(O)cc3c21` ; what pKa value has been reported?
*A* 10.5
